# test: in vitro
# Assay type: cell-based
# settings: human; HO8910 cells; read-out: cytotoxic activity IC50
measured.property: IC50

[
  {
    "compound": "CO[C@H](C)[C@@H](/C=C/C=C/C(=O)N(C)[C@H]1CCCN(C)C(=O)[C@H](C)N(C)C(=O)[C@H](C(C)C)N(C)C1=O)OC",
    "measured.property": "IC50",
    "reported": "> 30 µM"
  },
  {
    "compound": "CO[C@H](/C=C/C=C/C(=O)N[C@H]1CCCNC(=O)[C@H](C)N(C)C(=O)[C@H](C(C)C)N(C)C1=O)[C@@H](C)O",
    "measured.property": "IC50",
    "reported": "> 30 µM"
  },
  {
    "compound": "CC(C)[C@H]1C(=O)N(C)[C@@H](C)C(=O)NCCC[C@H](NC(=O)/C=C/C=C/C=O)C(=O)N1C [Compound 5, sclerotiotide F]",
    "measured.property": "IC50",
    "reported": "> 30 µM"
  },
  {
    "compound": "COC(=O)/C=C/C=C/C(=O)N[C@H]1CCCNC(=O)[C@H](C)N(C)C(=O)[C@H](C(C)C)N(C)C1=O",
    "measured.property": "IC50",
    "reported": "> 30 µM"
  },
  {
    "compound": "C/C=C/C=C/C=C/C(=O)N[C@H]1CCCNC(=O)[C@H](C)N(C)C(=O)[C@H](C(C)C)N(C)C1=O [Compound 6, sclerotiotide B]",
    "measured.property": "IC50",
    "reported": "> 30 µM"
  }
]

Could you now consider this next compound?
Lookup result for "CC(C)[C@H]1C(=O)N(C)[C@@H](C)C(=O)NCCC[C@H](NC(=O)/C=C/C=C/C(=O)O)C(=O)N1C" ; measured IC50: > 30 µM

----------
# System: Vibrio parahemolyticus
# test: Antimicrobial activity (MIC), agar dilution method
# Format: cell-based
# settings: performed in triplicates
measured.property: MIC, V. parahemolyticus (µM)
Respond numerically; units are µM and should not be typed.

[
  {
    "compound": "COC(=O)/C=C/C=C/C(=O)N[C@H]1CCCNC(=O)[C@H](C)N(C)C(=O)[C@H](C(C)C)N(C)C1=O",
    "reported": 6.25
  },
  {
    "compound": "CO[C@H](/C=C/C=C/C(=O)N[C@H]1CCCNC(=O)[C@H](C)N(C)C(=O)[C@H](C(C)C)N(C)C1=O)[C@@H](C)O",
    "reported": 25.0
  },
  {
    "compound": "CC(C)[C@H]1C(=O)N(C)[C@@H](C)C(=O)NCCC[C@H](NC(=O)/C=C/C=C/C(=O)O)C(=O)N1C",
    "reported": 3.13
  },
  {
    "compound": "CC(C)[C@H]1C(=O)N(C)[C@@H](C)C(=O)NCCC[C@H](NC(=O)/C=C/C=C/C=O)C(=O)N1C [Compound 5, sclerotiotide F]",
    "reported": 25.0
  }
]

With those in mind, consider the next compound.
MIC, V. parahemolyticus for "CO[C@H](C)[C@@H](/C=C/C=C/C(=O)N(C)[C@H]1CCCN(C)C(=O)[C@H](C)N(C)C(=O)[C@H](C(C)C)N(C)C1=O)OC" is 25.0
